Please go through the items and note down their Kd.
# system.name: T1, human IL-4Rα HIS FLAG (in house HEK-EBNA derived) (human, biotinylated where used as the labelled partner in the DELFIA assay)
# T1 construct: also called HuIL-4Rα; Human IL4-Rα/FLAG/HIS tag
# T1 chain: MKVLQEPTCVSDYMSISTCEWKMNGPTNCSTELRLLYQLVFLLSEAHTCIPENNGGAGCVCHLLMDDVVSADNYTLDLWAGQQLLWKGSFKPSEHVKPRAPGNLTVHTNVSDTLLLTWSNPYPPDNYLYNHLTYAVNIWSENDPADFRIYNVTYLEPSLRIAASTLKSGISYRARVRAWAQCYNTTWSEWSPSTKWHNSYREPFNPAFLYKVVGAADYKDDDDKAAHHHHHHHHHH
# test.description: SPR (BIAcore 2000), IgG captured on Protein G', receptor as analyte, 1:1 Langmuir
Numbers only, in nM.

As a guide, the following entries are already answered.
>  <binder>
Antibody 37 IgG (antibody, V domains shown) VH: QVQLVQSGAEVKKPGASVKVSCKASGYAFTSYYMHWARQAPGQGLEWMGIINPRGGSTSYAQKFQGRVAMTRDTSTSTVYMELSSLRPEDTAVYYCARGKYWMYDWGKGTLVTVSS VL: QSVLTQPPSVSAAPGQKVTISCSGGGSSIGNSYVSWYQQLPGTAPKLLIYDNNKRPSGVPDRFSGSKSGTSATLAITGLQTGDEADYYCGTWDTSPVWEWPFGTGTKLTVL

>  <Kd [nM]>
0.255

$$$$
>  <binder>
Antibody 20 IgG (antibody, V domains shown) VH: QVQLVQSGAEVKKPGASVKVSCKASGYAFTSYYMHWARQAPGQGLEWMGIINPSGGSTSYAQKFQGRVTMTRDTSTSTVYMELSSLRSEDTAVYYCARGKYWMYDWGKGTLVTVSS VL: QSVLTQPPSVSAAPGQKVTISCSGGSSNIGNSYVSWYQQLPGTAPKLLIYDNNKRPSGIPDRFSGSKSGTSATLAITGLQTGDEADYYCGTWDTSTVWEWPFGTGTKLTVL

>  <Kd [nM]>
1.25

$$$$
>  <binder>
Antibody 37GL IgG (antibody, V domains shown, germlined IgG; also called Antibody 37 (FGL)) VH: QVQLVQSGAEVKKPGASVKVSCKASGYAFTSYYMHWVRQAPGQGLEWMGIINPRGGSTSYAQKFQGRVTMTRDTSTSTVYMELSSLRSEDTAVYYCARGKYWMYDWGKGTLVTVSS VL: QSVLTQPPSVSAAPGQKVTISCSGGGSSIGNSYVSWYQQLPGTAPKLLIYDNNKRPSGIPDRFSGSKSGTSATLGITGLQTGDEADYYCGTWDTSPVWEWPFGTGTKLTVL

>  <Kd [nM]>
0.504

$$$$

With those in mind, consider the next binder.
Recorded Kd for Antibody 2 IgG (antibody, V domains shown) VH: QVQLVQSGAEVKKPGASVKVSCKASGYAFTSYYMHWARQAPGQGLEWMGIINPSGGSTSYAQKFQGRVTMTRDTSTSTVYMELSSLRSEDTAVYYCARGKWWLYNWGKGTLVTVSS VL: QSVLTQPPSVSAAPGQKVTISCSGGSSNIGNSYVSWYQQLPGTAPKLLIYDNNKRPSGIPDRFSGSKSGTSATLAITGLQTGDEADYYCGTWDTSQPPNPLFGTGTKLTVL , please? 4.51
